TARGET_OF_ASSAY: Kappa-type opioid receptor (Homo sapiens)
Sequence (P41145 whole entry): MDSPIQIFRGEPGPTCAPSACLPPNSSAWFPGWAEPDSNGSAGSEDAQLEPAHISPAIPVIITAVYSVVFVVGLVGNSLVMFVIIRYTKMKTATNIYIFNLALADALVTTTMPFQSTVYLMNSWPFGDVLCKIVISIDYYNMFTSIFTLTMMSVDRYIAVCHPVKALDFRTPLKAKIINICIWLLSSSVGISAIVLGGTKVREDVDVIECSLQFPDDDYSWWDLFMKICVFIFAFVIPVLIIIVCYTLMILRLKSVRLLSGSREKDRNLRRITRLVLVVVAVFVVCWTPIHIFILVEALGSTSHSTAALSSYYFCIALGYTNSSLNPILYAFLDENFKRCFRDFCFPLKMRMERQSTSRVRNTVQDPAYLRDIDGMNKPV
TEST_PARAMETERS: CHO
Description: Ability to displace U-69,593 from human recombinant Opioid receptor kappa 1 in CHO cells using [35S]- GTP-gamma S Assay
Listed here: items and their measured Ke.
Report the value in nM with no unit label.

Worked cases, answers included:
smiles_string=COc1ccc(CNC(=O)c2ccc3[nH]c4c(c3c2)C[C@@]2(O)C3Cc5ccc(O)c6c5[C@@]2(CCN3CC2CC2)[C@H]4O6)cc1 result_value=0.28
smiles_string=CCCCCCC/N=C(\N)Cc1ccc2[nH]c3c(c2c1)C[C@@]1(O)C2Cc4ccc(O)c5c4[C@@]1(CCN2CC1CC1)[C@H]3O5 result_value=0.37
smiles_string=CCCC(=O)NCCc1ccc2[nH]c3c(c2c1)C[C@@]1(O)C2Cc4ccc(O)c5c4[C@@]1(CCN2CC1CC1)[C@H]3O5 result_value=0.35

Query block: What does the data say about its Ke? Entry: O=C(NCc1ccccc1)c1ccc2[nH]c3c(c2c1)C[C@@]1(O)C2Cc4ccc(O)c5c4[C@@]1(CCN2CC1CC1)[C@H]3O5
Result block: 0.73

Query block: And CCCCC(=O)NCCc1ccc2[nH]c3c(c2c1)C[C@@]1(O)C2Cc4ccc(O)c5c4[C@@]1(CCN2CC1CC1)[C@H]3O5 ?
Result block: 0.46

###

Listed here: items and their measured Ki.
TARGET_OF_ASSAY: Mu-type opioid receptor (Homo sapiens)
Sequence (P35372 whole entry): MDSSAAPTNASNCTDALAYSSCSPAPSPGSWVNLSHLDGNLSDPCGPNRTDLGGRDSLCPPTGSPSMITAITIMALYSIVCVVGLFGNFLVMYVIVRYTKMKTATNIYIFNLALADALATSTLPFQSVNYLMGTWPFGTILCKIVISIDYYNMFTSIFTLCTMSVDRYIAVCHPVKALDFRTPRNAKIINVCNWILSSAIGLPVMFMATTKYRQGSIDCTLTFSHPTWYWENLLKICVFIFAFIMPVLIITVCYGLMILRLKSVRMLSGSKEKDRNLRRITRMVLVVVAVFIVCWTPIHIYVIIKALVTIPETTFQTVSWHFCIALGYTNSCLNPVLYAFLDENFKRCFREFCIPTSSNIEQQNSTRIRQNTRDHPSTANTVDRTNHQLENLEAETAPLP
MEASUREMENT_NOTES: Ability to displace [3H]DAMGO from human recombinant Opioid receptor mu 1 in CHO cells
Report the value in nM with no unit label.

Worked cases, answers included:
smiles_string=CCCCC(=N)NCCc1ccc2[nH]c3c(c2c1)C[C@@]1(O)C2Cc4ccc(O)c5c4[C@@]1(CCN2CC1CC1)[C@H]3O5 uom=nM result_value=219
smiles_string=CCCCCCCNC(=N)Cc1ccc2[nH]c3c(c2c1)C[C@@]1(O)C2Cc4ccc(O)c5c4[C@@]1(CCN2CC1CC1)[C@H]3O5 uom=nM result_value=56.6
smiles_string=CCCCCNC(=N)Cc1ccc2[nH]c3c(c2c1)C[C@@]1(O)C2Cc4ccc(O)c5c4[C@@]1(CCN2CC1CC1)[C@H]3O5 uom=nM result_value=25.3
smiles_string=CCNC(=O)NCCc1ccc2[nH]c3c(c2c1)C[C@@]1(O)C2Cc4ccc(O)c5c4[C@@]1(CCN2CC1CC1)[C@H]3O5 uom=nM result_value=37.6

Query block: So what Ki did O=C(NCCCCc1ccccc1)c1ccc2[nH]c3c(c2c1)C[C@@]1(O)C2Cc4ccc(O)c5c4[C@@]1(CCN2CC1CC1)[C@H]3O5 get with Mu-type opioid receptor (Homo sapiens)?
Result block: 37

Query block: And CCC(=O)NCCc1ccc2[nH]c3c(c2c1)C[C@@]1(O)C2Cc4ccc(O)c5c4[C@@]1(CCN2CC1CC1)[C@H]3O5 ?
Result block: 23

Query block: And CCCCC(=O)NCCc1ccc2[nH]c3c(c2c1)C[C@@]1(O)C2Cc4ccc(O)c5c4[C@@]1(CCN2CC1CC1)[C@H]3O5 ?
Result block: 31.6

Query block: And CC(C)CC(=N)NCCc1ccc2[nH]c3c(c2c1)C[C@@]1(O)C2Cc4ccc(O)c5c4[C@@]1(CCN2CC1CC1)[C@H]3O5 ?
Result block: 47.4

Query block: And CCC(=N)NCCc1ccc2[nH]c3c(c2c1)C[C@@]1(O)C2Cc4ccc(O)c5c4[C@@]1(CCN2CC1CC1)[C@H]3O5 ?
Result block: 26.4

Query block: And CCCNC(=N)Cc1ccc2[nH]c3c(c2c1)C[C@@]1(O)C2Cc4ccc(O)c5c4[C@@]1(CCN2CC1CC1)[C@H]3O5 ?
Result block: 13.5

Query block: And COc1ccc(CNC(=O)c2ccc3[nH]c4c(c3c2)C[C@@]2(O)C3Cc5ccc(O)c6c5[C@@]2(CCN3CC2CC2)[C@H]4O6)cc1 ?
Result block: 4.64
